B1: UBE2R2 (parent)
chain: DPQSGELPSERWNPTQNVRTILLS

Variants of: B1
run.description: protein stability index of a GFP-peptide fusion (GPS, HEK-293T) (PSI 1-6); higher = more stable;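 note: lentivirally expressed fusions sorted by FACS into six bins by GFP to DsRed ratio, PSI derived from sequencing read proportions per bin multiplied by bin number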
recorded.conditions: c terminus: a fixed tail appended
readout.kind: protein stability index

# variant.key, measured
records = [
    ("I21F", 3.96),
    ("S9E", 3.95),
    ("S24Q", 4.07),
    ("S9I", 4.09),
    ("L23H", 4.09),
]

Entry source: the supplement of paper PMC10567573
